assay-comment: Intrinsic clearance in human liver microsomes at 1 uM preincubated for 5 mins followed by NADPH addition and measured after 45 mins by LC/MS/MS analysis
Assay type: ADME, microsome
particulars: read-out: CLH
value-kind: CLint scaled at 1 µM (mL/min/kg)

Worked cases, CLint scaled at 1 µM given:
| input-smiles | unit-of-measure | CLint scaled at 1 µM |
| --- | --- | --- |
| [2H]c1c([2H])c([2H])c(-c2ccc([C@H](Cn3ccnc3)NC(=O)c3ccc(-c4nnc(-c5ccccc5)o4)cc3)c(Cl)c2)c([2H])c1[2H] | mL/min/kg | 21.2 |
| O=C(N[C@@H](Cn1ccnc1)c1c(F)cc(-c2ccc(F)cc2)cc1F)c1ccc(-c2nnc(-c3ccccc3)o2)cc1 | mL/min/kg | 19.4 |

[1] CS(=O)(=O)c1ccc(-c2ccc([C@H](Cn3ccnc3)NC(=O)c3ccc(-c4nnc(-c5ccccc5)o4)cc3)c(Cl)c2)cc1
[2] O=C(N[C@@H](Cn1ccnc1)c1ccc(-c2ccc(F)cc2)cc1Cl)c1ccc(-c2nnc(-c3ccncc3)o2)cc1
Given the listed items, does 1 or 2 have the lesser reported CLint scaled at 1 µM? Indicate which entry you chose by stating its label.
1
